assayed_target: T1, CRBN, Q96SW2;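 also: pooled lentiviral library of zinc finger degron-EGFP fusions in mCherry-positive Jurkat cells, FACS-sorted after compound exposure, with degron abundance counted by next-generation sequencing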
T1 chain: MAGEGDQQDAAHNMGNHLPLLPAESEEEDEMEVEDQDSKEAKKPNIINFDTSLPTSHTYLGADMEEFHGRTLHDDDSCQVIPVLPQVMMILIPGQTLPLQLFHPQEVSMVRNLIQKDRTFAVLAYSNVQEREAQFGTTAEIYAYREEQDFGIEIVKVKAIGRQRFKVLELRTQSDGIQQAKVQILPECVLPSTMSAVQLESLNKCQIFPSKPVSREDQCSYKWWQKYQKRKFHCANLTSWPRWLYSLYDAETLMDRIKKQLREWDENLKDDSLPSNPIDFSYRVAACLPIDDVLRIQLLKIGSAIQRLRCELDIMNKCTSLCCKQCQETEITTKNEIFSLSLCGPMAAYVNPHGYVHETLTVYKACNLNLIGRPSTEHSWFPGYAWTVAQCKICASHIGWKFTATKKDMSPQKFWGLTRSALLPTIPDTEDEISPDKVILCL
measurement_notes: log2 fold change of degron read counts, EGFP-low vs EGFP+ sorted cells (limma voom), compound-induced degradation; higher = more compound-induced degradation of the degron-EGFP fusion; degrons are variants of IKZF1/3 zinc finger 2; compound dose not given here
run_conditions: Jurkat; 18 h; compound: thalidomide
Whole data set: some 8,300 sequences, median “log2 fold change of degron read counts, EGFP-low vs EGFP+ sorted cells (limma voom), compound-induced degradation” near -1.1, cut for the highest 2% near 3.2. Only a selection was taken, and the highest values are over-represented in it overall.
quantity: log2 fold change of degron read counts
Numbers only.

Solved entries (count: 3):
* FGCDICGANFTQKGNLLRHIKL [46F_47G_49D_50I_52G_53A_54N_55F_67L_, Q9UKT9] | -0.564
* FGCDICGALFTQKGNLLRHIKL [46F_47G_49D_50I_52G_53A_54L_55F_67L_, Q9UKT9] | -1.25
* FQCNQCGHEFTQKGNLLRHIKL [46F_47Q_49N_50Q_52G_53H_54E_55F_67L_, Q9UKT9] | -3.28

# context switch: different sequence, same log2 fold change of degron read counts
May I ask what log2 fold change of degron read counts has been recorded for FECNQCGRSFTQKGNLLRHIKL [46F_47E_49N_50Q_52G_53R_54S_55F_67L_, Q9UKT9] ? -2.98
